# credit: patent US8354403B2

- Assay System: human β3 adrenergic receptor (Homo sapiens, UniProt P13945)
- Construct: expressed in transfected cells; host or cells: Chinese hamster ovary (CHO) cells, stably transfected
- Sequence (P13945 whole entry): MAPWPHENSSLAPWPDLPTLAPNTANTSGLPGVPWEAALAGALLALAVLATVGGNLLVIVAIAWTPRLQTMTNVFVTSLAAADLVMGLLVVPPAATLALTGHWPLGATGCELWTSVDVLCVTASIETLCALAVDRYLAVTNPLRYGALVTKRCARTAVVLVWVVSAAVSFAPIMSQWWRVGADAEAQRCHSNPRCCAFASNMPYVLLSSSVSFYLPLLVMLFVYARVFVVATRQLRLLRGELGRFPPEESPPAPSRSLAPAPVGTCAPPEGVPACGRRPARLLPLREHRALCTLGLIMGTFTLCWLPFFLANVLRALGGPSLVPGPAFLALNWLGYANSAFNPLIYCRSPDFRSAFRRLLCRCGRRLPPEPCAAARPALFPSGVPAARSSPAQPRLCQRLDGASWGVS
- Procedure Details: Beta-3 agonist in vitro functional assay: cAMP production (LANCE TR-FRET) in CHO cells stably transfected with the cloned β3 receptor
- Type: cell-based
- Study Conditions: Table 9; Beta-3 agonist in vitro functional assay; read-out: Human β3 agonist functional activity
Measured Metric: EC50

Consider the following illustrative entries.
| Compound | Measured Metric | Value Measured |
| --- | --- | --- |
| O=C(c1ccc(C[C@@H]2CC[C@H]([C@H](O)c3cccnc3)N2)cc1)N1CCN(c2nccs2)CC1 [Example 379] | EC50 | 0.1 to 0.999 µM |
| O=C(c1ccc(C[C@@H]2CC[C@H]([C@H](O)c3ccccc3)N2)cc1)N1CCN(c2ccc3c(c2)OCO3)CC1 [Example 353] | EC50 | 0.1 to 0.999 µM |
| O=C(c1ccc(C[C@@H]2CC[C@H]([C@H](O)c3ccccc3)N2)cc1)N1CCN(c2cc3ccccc3cn2)CC1 [Example 374] | EC50 | 0.1 to 0.999 µM |
| Cn1nnc(CN2CCN(C(=O)c3ccc(C[C@@H]4CC[C@H]([C@H](O)c5ccccc5)N4)cc3)CC2)n1 [Example 401] | EC50 | 0.01 to 0.0999 µM |
| O=C(c1ccc(C[C@@H]2CC[C@H]([C@H](O)c3ccccc3)N2)cc1)N1CCN(Cc2ncccc2C(F)(F)F)CC1 [Example 417] | EC50 | 0.01 to 0.0999 µM |
| NC(=O)CN1CCN(C(=O)c2ccc(C[C@@H]3CC[C@H]([C@H](O)c4ccccc4)N3)cc2)CC1 [Example 388] | EC50 | 0.1 to 0.999 µM |

-- ask What does the data say about its EC50? Entry: COC(=O)COc1cccnc1N1CCN(C(=O)c2ccc(C[C@@H]3CC[C@H]([C@H](O)c4ccccc4)N3)cc2)CC1 [Example 368]
-- reply 0.01 to 0.0999 µM
